Sourced from PubChem BioAssay AID328

# Tested on: BDF1 mice, P388 leukemia ip, median survival T/C
# measurementDescription: NCI In Vivo Anticancer Drug Screen. Data for tumor model P388 Leukemia (intraperitoneal) in B6D2F1 (BDF1) mice
# assaySetup: endpoint: median survival time; dose: 400.0 mg/kg/injection; schedule: Q04DX003 (ip); vehicle: saline; higher = longer survival
# Description: The antitumor activity of compounds was measured in mice bearing transplantable tumors. Survival or tumor size were measured and the results are expressed as the measurement made in the treated group (T) divided by the measurement made in the vehicle treated control group (C). The tumor model used in this assay is P388 Leukemia (intraperitoneal) in B6D2F1 (BDF1) mice
Toxic doses and inconclusive results are not listed.
Listing: T/C of selected compounds

compound	assayedSystem	T/C
CC1OCC2OC(C)OC(C(COC(c3ccccc3)(c3ccccc3)c3ccccc3)OS(C)(=O)=O)C2O1 (configuration not stated)	BDF1 mice, P388 leukemia ip, median survival T/C	108 % of control
COc1cccc(CC(N)=O)c1OC	BDF1 mice, P388 leukemia ip, median survival T/C	100 % of control
CCN(CC)C(=O)Cn1cc(F)c(N)nc1=O	BDF1 mice, P388 leukemia ip, median survival T/C	100 % of control
Cc1cc(NCCCCCCNc2cc(C)nc3ccc(N)cc23)c2cc(N)ccc2n1	BDF1 mice, P388 leukemia ip, median survival T/C	250 % of control
CC12CC3(O)CCC1CCC2C(=O)C3 (configuration not stated)	BDF1 mice, P388 leukemia ip, median survival T/C	122 % of control
CC(C)(C)CC(C)(C)c1ccc(O)cc1	BDF1 mice, P388 leukemia ip, median survival T/C	120 % of control
N[C@H](C(=O)O)[C@H]1ON=C(Cl)[C@@H]1O	BDF1 mice, P388 leukemia ip, median survival T/C	238 % of control
NS(=O)(=O)c1ccc(N=Nc2nc3ncnc(SCc4cccs4)c3[nH]2)cc1	BDF1 mice, P388 leukemia ip, median survival T/C	108 % of control
CC1COCC(C)N1 (configuration not stated)	BDF1 mice, P388 leukemia ip, median survival T/C	106 % of control
CC([NH-])C(=O)O.O=C(O)CN(CC(=O)O)CC(=O)O.[Co+2]	BDF1 mice, P388 leukemia ip, median survival T/C	91 % of control
NNC(=O)CCCCCC(=O)NN	BDF1 mice, P388 leukemia ip, median survival T/C	90 % of control
C(#Cc1ccccc1)COCC1CO1 (configuration not stated)	BDF1 mice, P388 leukemia ip, median survival T/C	120 % of control
